Cited source for all entries: ChEMBL document CHEMBL3259704

System: Plasmodium falciparum
assayProcedure: Resistance index, ratio of IC90 for CQ-resistant, MFQ-susceptible Plasmodium falciparum W2 clone Indochina 1 isolate to IC90 for CQ, MFQ-susceptible Plasmodium falciparum D6 clone Sierra 1/UNC isolate
Type: functional
readoutKind: Ratio
// response body must contain only the number

Ask: Field: Ratio (Plasmodium falciparum). Entry: CC(=O)O[C@H]1C[C@H]2[C@@H]([C@H](OC(C)=O)C[C@@H]3C[C@H](NS(C)(=O)=O)CC[C@@]32C)[C@@H]2CC[C@H]([C@H](C)CCCNCCNc3ccnc4cc(Cl)ccc34)[C@@]12C
Reply: 1.34

====

The entries below come with measured pKi values attached.
system: Botulinum neurotoxin type A (Clostridium botulinum, UniProt P0DPI0)
Sequence (P0DPI0 2-448 limits assumed): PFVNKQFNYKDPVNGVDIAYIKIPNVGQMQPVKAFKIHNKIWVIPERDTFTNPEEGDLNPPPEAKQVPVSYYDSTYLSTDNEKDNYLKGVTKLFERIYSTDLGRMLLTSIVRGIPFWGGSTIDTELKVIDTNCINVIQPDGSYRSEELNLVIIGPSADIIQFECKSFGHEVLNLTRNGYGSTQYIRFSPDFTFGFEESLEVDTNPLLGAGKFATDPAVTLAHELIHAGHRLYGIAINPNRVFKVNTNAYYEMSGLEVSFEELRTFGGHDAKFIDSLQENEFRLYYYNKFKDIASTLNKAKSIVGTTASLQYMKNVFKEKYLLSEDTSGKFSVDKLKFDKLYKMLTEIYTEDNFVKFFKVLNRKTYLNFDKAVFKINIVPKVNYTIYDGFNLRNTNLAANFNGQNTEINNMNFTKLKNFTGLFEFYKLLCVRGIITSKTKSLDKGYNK
assayProcedure: Inhibition of Clostridium botulinum recombinant BoNT/A light chain using N-terminal acetylated, C-terminal aminated SNAP-25 (187-203) as substrate by reverse-phase HPLC analysis
// scale note: pKi = -log10(conc_M); give the bare number

Below, 3 molecules whose answers are already recorded.
Ask: // lookup pKi for CC(=O)O[C@@H]1CC[C@@]2(C)[C@@H](C1)C[C@@H](OC(C)=O)[C@@H]1[C@@H]2C[C@H](OC(C)=O)[C@]2(C)[C@@H]([C@H](C)CCCN(C)CCCNc3ccnc4cc(Cl)ccc34)CC[C@@H]12
Reply: 5.11

Ask: I would be grateful if you could share the reported pKi for CC(=O)O[C@@H]1CC[C@@]2(C)[C@@H](C1)C[C@@H](OC(C)=O)[C@@H]1[C@@H]2C[C@H](OC(C)=O)[C@]2(C)[C@@H]([C@H](C)CCCNCCNc3ccnc4cc(Cl)ccc34)CC[C@@H]12 .
Reply: 5.16

Ask: Consider the molecule CC(=O)O[C@H]1C[C@H]2[C@@H]([C@H](OC(C)=O)C[C@@H]3C[C@H](NCCCCCCNc4ccnc5cc(Cl)ccc45)CC[C@@]32C)[C@@H]2CC[C@H]([C@H](C)CCCNCCCCCCNc3ccnc4cc(Cl)ccc34)[C@@]12C and give its measured pKi.
Reply: 6.55

Shifting focus to the molecule that follows.
Ask: May I ask what pKi has been recorded for CC(=O)O[C@H]1C[C@H]2[C@@H]([C@H](OC(C)=O)C[C@@H]3C[C@@H](NCCCCNc4ccnc5cc(Cl)ccc45)CC[C@@]32C)[C@@H]2CC[C@H]([C@H](C)CCCNCCCCNc3ccnc4cc(Cl)ccc34)[C@@]12C ?
Reply: 6.52

====

System: HepG2
assayProcedure: Cytotoxicity against human HepG2 cells assessed as cell viability after 48 hrs by MTT assay
Type: cell-based
measurementConditions: HepG2, 48 h
readoutKind: pIC50
Lab note — pIC50 values are minus log10 of concentrations in M.

These solved cases illustrate the format of a correct answer.
Ask: I am curious: what pIC50 value has been reported for CC(=O)O[C@H]1C[C@H]2[C@@H]([C@H](OC(C)=O)C[C@@H]3CC(=O)CC[C@@]32C)[C@@H]2CC[C@H]([C@H](C)CCCNCCCCCCNc3ccnc4cc(Cl)ccc34)[C@@]12C ?
Reply: 5.89

Ask: Endpoint output: pIC50 of CC(=O)O[C@H]1C[C@H]2[C@@H]([C@H](OC(C)=O)C[C@@H]3C[C@H](NS(C)(=O)=O)CC[C@@]32C)[C@@H]2CC[C@H]([C@H](C)CCCN(C)CCNc3ccnc4cc(Cl)ccc34)[C@@]12C . Value?
Reply: 4.84

Ask: Param item = CC(=O)O[C@H]1C[C@H]2[C@@H]([C@H](OC(C)=O)C[C@@H]3C[C@H](N)CC[C@@]32C)[C@@H]2CC[C@H]([C@H](C)CCCN(CCC[C@@H](C)[C@H]3CC[C@H]4[C@@H]5[C@H](OC(C)=O)C[C@@H]6C[C@H](N)CC[C@]6(C)[C@H]5C[C@H](OC(C)=O)[C@]34C)CCNc3ccnc4cc(Cl)ccc34)[C@@]12C ; retrieve measured pIC50.
Reply: 5.78

As a next step, examine the compound that follows.
Ask: Request the reported pIC50 associated with CC(=O)O[C@H]1C[C@H]2[C@@H]([C@H](OC(C)=O)C[C@@H]3C[C@H](O)CC[C@@]32C)[C@@H]2CC[C@H]([C@H](C)CCCNCCCCCCNc3ccnc4cc(Cl)ccc34)[C@@]12C
Reply: 5.69

====

Tested on: Plasmodium falciparum
assayProcedure: Antimalarial activity against CQ, MFQ-resistant Plasmodium falciparum TM91C235 clone Southeast asian isolate assessed as inhibition of parasite proliferation by MSF assay
Format: functional, organism-based
Listed compounds paired with reported pIC50
Convention used: pIC50 is expressed as -log10 of the molar concentration.

# example entries with known answers
Ask: Can you look up pIC50 on Plasmodium falciparum for CC(=O)O[C@H]1C[C@H]2[C@@H]([C@H](OC(C)=O)C[C@@H]3C[C@H](NS(C)(=O)=O)CC[C@@]32C)[C@@H]2CC[C@H]([C@H](C)CCCNCCCNc3ccnc4cc(Cl)ccc34)[C@@]12C ?
Reply: 7.52

Ask: Reported pIC50 for Plasmodium falciparum, given CC(=O)O[C@H]1C[C@H]2[C@@H]([C@H](OC(C)=O)C[C@@H]3C[C@H](O)CC[C@@]32C)[C@@H]2CC[C@H]([C@H](C)CCCNCCCCNc3ccnc4cc(Cl)ccc34)[C@@]12C ?
Reply: 7.25

Further cases:
Ask: Item: CC(=O)O[C@H]1C[C@H]2[C@@H]([C@H](OC(C)=O)C[C@@H]3C[C@H](NC(=O)OC(C)(C)C)CC[C@@]32C)[C@@H]2CC[C@H]([C@H](C)CCCNCCNc3ccnc4cc(Cl)ccc34)[C@@]12C Test system: Plasmodium falciparum Read-out: pIC50 Value: ?
Reply: 7.56

====

Overview of reported IC50 across a group of compounds:
System: HepG2
assayProcedure: Cytotoxicity against human HepG2 cells assessed as cell viability after 48 hrs by MTT assay
Format: cell-based
measurementConditions: HepG2, 48 h
Report the figure in µM without appending any unit label.

Look over these answered cases.
Ask: Entry CC(=O)O[C@H]1C[C@H]2[C@@H]([C@H](OC(C)=O)C[C@@H]3C[C@H](N)CC[C@@]32C)[C@@H]2CC[C@H]([C@H](C)CCCN(C)CCCNc3ccnc4cc(Cl)ccc34)[C@@]12C has what IC50?
Reply: 4.97

Ask: Query (compound): CC(=O)O[C@H]1C[C@H]2[C@@H]([C@H](OC(C)=O)C[C@@H]3C[C@H](N)CC[C@@]32C)[C@@H]2CC[C@H]([C@H](C)CCCNCCNc3ccnc4cc(Cl)ccc34)[C@@]12C ; field requested: IC50
Reply: 5.61

Ask: Which IC50 reading was recorded for the compound CC(=O)O[C@H]1C[C@H]2[C@@H]([C@H](OC(C)=O)C[C@@H]3C[C@H](N(C)C)CC[C@@]32C)[C@@H]2CC[C@H]([C@H](C)CCCNCCNc3ccnc4cc(Cl)ccc34)[C@@]12C ?
Reply: 14.1

***
Ask: // query IC50 value for entry CC(=O)N[C@@H]1CC[C@@]2(C)[C@@H](C1)C[C@@H](OC(C)=O)[C@@H]1[C@@H]2C[C@H](OC(C)=O)[C@]2(C)[C@@H]([C@H](C)CCCNCCCNc3ccnc4cc(Cl)ccc34)CC[C@@H]12
Reply: 1.45

====

Test system: Plasmodium falciparum
assayProcedure: Antimalarial activity against CQ, MFQ-resistant Plasmodium falciparum TM91C235 clone Southeast asian isolate assessed as inhibition of parasite proliferation by MSF assay
Assay type: functional, organism-based
IC50 values for the compounds below.
Reply with just the number (in nM).

Ask: Entry CC(=O)O[C@H]1C[C@H]2[C@@H]([C@H](OC(C)=O)C[C@@H]3C[C@H](N(C)C)CC[C@@]32C)[C@@H]2CC[C@H]([C@H](C)CCCN(C)CCNc3ccnc4cc(Cl)ccc34)[C@@]12C has what IC50?
Reply: 2.9

Ask: Value lookup for IC50; key = CC(=O)N[C@@H]1CC[C@@]2(C)[C@@H](C1)C[C@@H](OC(C)=O)[C@@H]1[C@@H]2C[C@H](OC(C)=O)[C@]2(C)[C@@H]([C@H](C)CCCNCCNc3ccnc4cc(Cl)ccc34)CC[C@@H]12
Reply: 15.2

Ask: For the compound shown here, CC(=O)O[C@H]1C[C@H]2[C@@H]([C@H](OC(C)=O)C[C@@H]3CC(NCCNc4ccnc5cc(Cl)ccc45)CC[C@@]32C)[C@@H]2CC[C@H]([C@H](C)CCCNCCNc3ccnc4cc(Cl)ccc34)[C@@]12C (stereo partly drawn) , give the reported IC50.
Reply: 124

Ask: Query: IC50; subject: CC(=O)O[C@H]1C[C@H]2[C@@H]([C@H](OC(C)=O)C[C@@H]3C[C@H](N)CC[C@@]32C)[C@@H]2CC[C@H]([C@H](C)CCCN(CCC[C@@H](C)[C@H]3CC[C@H]4[C@@H]5[C@H](OC(C)=O)C[C@@H]6C[C@H](N)CC[C@]6(C)[C@H]5C[C@H](OC(C)=O)[C@]34C)CCNc3ccnc4cc(Cl)ccc34)[C@@]12C
Reply: 85.9

Ask: Fill in: IC50 of CC(=O)O[C@H]1C[C@H]2[C@@H]([C@H](OC(C)=O)C[C@@H]3C[C@H](N)CC[C@@]32C)[C@@H]2CC[C@H]([C@H](C)CCCN(CCCNc3ccnc4cc(Cl)ccc34)CCC[C@@H](C)[C@H]3CC[C@H]4[C@@H]5[C@H](OC(C)=O)C[C@@H]6C[C@H](N)CC[C@]6(C)[C@H]5C[C@H](OC(C)=O)[C@]34C)[C@@]12C is ___
Reply: 297

Ask: Please look up its IC50: CC(=O)O[C@H]1C[C@H]2[C@@H]([C@H](OC(C)=O)C[C@@H]3C[C@H](N)CC[C@@]32C)[C@@H]2CC[C@H]([C@H](C)CCCNCCNc3ccnc4cc(Cl)ccc34)[C@@]12C
Reply: 147

Continuing:
Ask: Item CC(=O)O[C@H]1C[C@H]2[C@@H]([C@H](OC(C)=O)C[C@@H]3CC(=O)CC[C@@]32C)[C@@H]2CC[C@H]([C@H](C)CCCNCCCNc3ccnc4cc(Cl)ccc34)[C@@]12C has what recorded IC50?
Reply: 9.19

Ask: Give the measured IC50 of CC(=O)O[C@@H]1CC[C@@]2(C)[C@@H](C1)C[C@@H](OC(C)=O)[C@@H]1[C@@H]2C[C@H](OC(C)=O)[C@]2(C)[C@@H]([C@H](C)CCCNCCCNc3ccnc4cc(Cl)ccc34)CC[C@@H]12 .
Reply: 14.5
